Target: Histamine H1 receptor (Homo sapiens, UniProt P35367)
Sequence (P35367 whole entry): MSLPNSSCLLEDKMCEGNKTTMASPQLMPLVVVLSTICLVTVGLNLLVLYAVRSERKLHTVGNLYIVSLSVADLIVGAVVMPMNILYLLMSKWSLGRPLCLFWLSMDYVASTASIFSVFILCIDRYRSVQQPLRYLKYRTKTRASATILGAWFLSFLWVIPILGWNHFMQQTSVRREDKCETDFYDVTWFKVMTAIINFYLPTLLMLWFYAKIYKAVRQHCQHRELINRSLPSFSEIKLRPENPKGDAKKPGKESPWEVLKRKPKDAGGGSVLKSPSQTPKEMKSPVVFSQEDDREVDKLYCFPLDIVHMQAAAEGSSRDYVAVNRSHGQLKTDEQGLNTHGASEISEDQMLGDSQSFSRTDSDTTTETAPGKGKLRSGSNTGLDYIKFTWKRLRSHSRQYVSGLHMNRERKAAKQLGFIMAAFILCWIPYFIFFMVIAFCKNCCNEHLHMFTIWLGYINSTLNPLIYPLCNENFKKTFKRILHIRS
Assay: Antagonist activity against human histamine H1 receptor expressed in CHO cells by FLIPR assay
Give measured Ki for each item. Keep answers brief.
Numbers only, in nM.

O=C(O)CC1CCN(C2CCC3(Cc4ccccc4Cc4ccccc43)C2)CC1 (stereo not given)
25.1
O=C(O)C1CCN(C2CCC3(Cc4ccccc4Oc4ccccc43)C2)CC1 (stereo not given)
79.4
O=C(O)C1(O)CCN(C2CCC3(Cc4ccccc4Cc4ccccc43)C2)CC1 (stereo not given)
50.1
O=C(O)C1=CCN(C2CCC3(Cc4ccccc4Oc4ccccc43)C2)CC1 (stereo not given)
50.1

Let's switch to this compound now.
Request: Fill in: Ki of CC1(C(=O)O)CCN(C2CC[C@]3(Cc4ccccc4Cc4ccccc43)C2)C1 (stereo not given in full) is ___
Response: 12.6

###

Recorded below: IC50, system Voltage-gated inwardly rectifying potassium channel KCNH2 (Homo sapiens, UniProt Q12809).

Past entries and their recorded results:
O=C(O)CCNC1CC[C@@]2(Cc3ccccc3Cc3ccccc32)C1 (some centres not stated)
> 63.1 µM
O=C(O)CCNC1CC[C@]2(Cc3ccccc3Cc3ccccc32)C1 (some centres not stated)
63.1 µM
O=C(O)C1CN(C2CCC3(Cc4ccccc4Oc4ccccc43)C2)C1 (configuration not stated)
> 50.1 µM
O=C(O)[C@]12C[C@H]1CN(C1CC[C@]3(Cc4ccccc4Cc4ccccc43)C1)C2 (some centres not stated)
> 39.8 µM
O=C(O)C1(F)CCN(C2CC[C@]3(Cc4ccccc4Cc4ccccc43)C2)CC1 (some centres not stated)
> 39.8 µM
O=C(O)C1CN(C2CC[C@]3(Cc4ccccc4Cc4ccccc43)C2)C1 (some centres not stated)
> 50.1 µM

Request: Fill in: IC50 of O=C(O)C1CCN(C2CC[C@]3(Cc4ccccc4Cc4ccccc43)C2)CC1 (some centres not stated) is ___
Response: > 63.1 µM

###

Target: 5-hydroxytryptamine receptor 2A (Rattus norvegicus, UniProt P14842)
Sequence (P14842 whole entry): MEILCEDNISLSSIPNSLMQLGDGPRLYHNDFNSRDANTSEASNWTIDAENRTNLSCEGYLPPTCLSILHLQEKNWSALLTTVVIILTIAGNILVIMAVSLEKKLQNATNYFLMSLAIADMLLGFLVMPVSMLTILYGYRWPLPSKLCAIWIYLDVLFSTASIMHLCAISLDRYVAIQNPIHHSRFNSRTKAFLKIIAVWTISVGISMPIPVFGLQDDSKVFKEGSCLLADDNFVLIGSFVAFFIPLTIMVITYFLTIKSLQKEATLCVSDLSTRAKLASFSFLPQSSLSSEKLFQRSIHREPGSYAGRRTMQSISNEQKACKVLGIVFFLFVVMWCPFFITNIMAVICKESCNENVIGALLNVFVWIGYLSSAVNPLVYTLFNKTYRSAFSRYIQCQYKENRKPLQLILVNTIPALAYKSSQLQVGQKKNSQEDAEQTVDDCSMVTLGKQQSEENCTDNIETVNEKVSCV
Give measured Ki for each item. Keep answers brief.
Numbers only, in nM.

Past entries and their recorded results:
O=C(O)C1CN(C2CCC3(Cc4ccccc4Oc4ccccc43)C2)C1 (centres undefined)
33.9
O=C(O)[C@]12C[C@H]1CN(C1CC[C@]3(Cc4ccccc4Cc4ccccc43)C1)C2 (some centres undefined)
69.2
O=C(O)C1=CCCN(C2CC[C@]3(Cc4ccccc4Cc4ccccc43)C2)C1 (single isomer, unassigned; stereoisomer 1)
117

Let's switch to this compound now.
Request: Fill in: Ki of O=C(O)C1CCN(C2CC[C@]3(Cc4ccccc4Cc4ccccc43)C2)CC1 (some centres undefined) is ___
Response: 33.9

###

Target: Histamine H1 receptor (Homo sapiens)
Assay: Antagonist activity against human histamine H1 receptor expressed in CHO cells by FLIPR assay
The label 1 is reserved for Ki strictly under 50 nM; -1 covers values equal to or above it.

Use the examples below as a reference point.
CN(C)C1CC[C@]2(Cc3ccccc3Cc3ccccc32)C1 (stereo not given in full)
1
O=C(O)C1CCN(C2CCC3(C2)C(=O)c2cc(Cl)ccc2Oc2ccccc23)CC1 (stereo not given)
-1
O=C(O)C1=CCCN(C2CC[C@]3(Cc4ccccc4Cc4ccccc43)C2)C1 (single isomer, unassigned; stereoisomer 1)
1
O=C(O)C1CN(C2CC[C@]3(Cc4ccccc4Cc4ccccc43)C2)CCN1 (stereo not given in full)
-1
O=C(O)C1CCN(C2CCC3(C2)C(=O)c2cc(F)ccc2Sc2ccccc23)CC1 (stereo not given)
-1
O=C(O)C1(F)CCN(C2CCC3(Cc4ccccc4Oc4ccccc43)C2)CC1 (stereo not given)
-1

Request: Quick check: Ki of O=C(O)C1=CCN(C2CCC3(Cc4ccccc4Cc4ccccc43)C2)CC1 (stereo not given) under 50 nM?
Response: 1

Request: Quick check: Ki of O=C(O)C1=CCCN(C2CCC3(C2)C(=O)c2ccccc2Cc2ccccc23)C1 (stereo not given) under 50 nM?
Response: -1
